The reported numbers originate from patent US20230099344A1.

- Target of assay: IRAK-4 (Homo sapiens, UniProt Q9NWZ3)
- Sequence (Q9NWZ3 1-460): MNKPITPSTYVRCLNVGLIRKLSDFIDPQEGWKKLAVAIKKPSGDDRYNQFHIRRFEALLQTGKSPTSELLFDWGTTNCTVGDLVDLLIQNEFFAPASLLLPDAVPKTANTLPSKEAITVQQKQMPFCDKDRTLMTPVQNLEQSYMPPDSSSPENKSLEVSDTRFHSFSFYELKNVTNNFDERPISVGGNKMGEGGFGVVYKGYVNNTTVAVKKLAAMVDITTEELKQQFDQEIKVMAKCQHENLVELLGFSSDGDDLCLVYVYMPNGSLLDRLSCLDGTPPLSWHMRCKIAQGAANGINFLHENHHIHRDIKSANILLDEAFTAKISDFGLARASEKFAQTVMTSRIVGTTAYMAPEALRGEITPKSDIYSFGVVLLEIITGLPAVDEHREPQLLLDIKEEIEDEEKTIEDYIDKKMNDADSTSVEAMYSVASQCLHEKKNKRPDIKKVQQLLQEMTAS
- Experimental protocol: IRAK-4 ELISA, PBMC degradation
- Format: cell-based
- Design: endogenous in cells; host or cells: PBMC
- Condition: treated overnight
Field: Dmax. Provide a value for each of the molecules that follow.

Illustrative cases are given below, each with its answer.
[[record]]
molecule = "O=C1CCC(N2C(=O)c3ccc(N4CCC(CN5CCC(N6Cc7cc(NC(=O)c8cnn9cccnc89)c(OC8CC8)cc7C6=O)CC5)CC4)cc3C2=O)C(=O)N1 (stereo not drawn)"
target_of_assay = "IRAK-4 (Homo sapiens, UniProt Q9NWZ3)"
recorded_value = "≥ 90%"

[[record]]
molecule = "CC1(CN2CCC(n3cc4cc(NC(=O)c5cnn6cccnc56)c(OCC5CC5)cc4n3)CC2)CN(c2cc3c(cc2F)C(=O)N(C2CCC(=O)NC2=O)C3=O)C1 (stereo not drawn)"
target_of_assay = "IRAK-4 (Homo sapiens, UniProt Q9NWZ3)"
recorded_value = "70 to 80%"

[[record]]
molecule = "CN([C@H]1CC[C@H](n2cc3cc(NC(=O)c4cnn5cccnc45)c(OCC4CC4)cc3n2)CC1)[C@H]1C[C@H](Oc2ccc3c(c2)C(=O)N(C2CCC(=O)NC2=O)C3=O)C1 (stereo partly drawn)"
target_of_assay = "IRAK-4 (Homo sapiens, UniProt Q9NWZ3)"
recorded_value = "≥ 90%"

[[record]]
molecule = "CN(C1CCC(N2Cc3cc(NC(=O)c4cnn5cccnc45)c(OC4CC4)cc3C2=O)CC1)C1CCN(c2ccc3c(c2)C(=O)N(C2CCC(=O)NC2=O)C3=O)CC1 (stereo not drawn)"
target_of_assay = "IRAK-4 (Homo sapiens, UniProt Q9NWZ3)"
recorded_value = "≥ 90%"

[[record]]
molecule = "O=C1CCC(N2C(=O)c3ccc(N4CCC5(CCC(CN6CCC(n7cc8cc(NC(=O)c9cnn%10cccnc9%10)c(OCC9CC9)cc8n7)CC6)CC5)CC4)cc3C2=O)C(=O)N1 (stereo not drawn)"
target_of_assay = "IRAK-4 (Homo sapiens, UniProt Q9NWZ3)"
recorded_value = "≥ 90%"


Batch request: Dmax per item, same order as input.
1. O=C1CCC(N2C(=O)c3ccc(N4CCC(CN5CCC(N6Cc7cc(NC(=O)c8cnn9cccnc89)c(OCC8CC8)cc7C6=O)CC5)CC4)cc3C2=O)C(=O)N1 (stereo not drawn)
2. O=C1CCC(NC(=O)c2ccc(N3CCC(CN4CCC(N5Cc6cc(NC(=O)c7cnn8cccnc78)c(OCC(F)F)cc6C5=O)CC4)CC3)cc2F)C(=O)N1 (stereo not drawn)
3. CC(C)Oc1cc2c(cc1NC(=O)c1cnn3cccnc13)CN(C1CCN(C[C@@H]3CCCN(c4ccc5c(c4)C(=O)N(C4CCC(=O)NC4=O)C5=O)C3)CC1)C2=O (stereo partly drawn)
4. O=C1CCC(N2C(=O)c3ccc(N4CCC(CN5CCC(n6cc7cc(NC(=O)c8cnn9cccnc89)c(OCC8CC8)cc7n6)CC5)CC4)cc3C2=O)C(=O)N1 (stereo not drawn)
5. CC(C)Oc1cc2c(cc1NC(=O)c1cnn3cccnc13)CN([C@H]1CC[C@@H](N3CCN(c4ccc5c(c4)CN(C4CCC(=O)NC4=O)C5=O)CC3)CC1)C2=O (stereo partly drawn)

Outgoing:
1: 80 to 90%; 2: 80 to 90%; 3: ≥ 90%; 4: ≥ 90%; 5: 80 to 90%

Batch request: Dmax per item, same order as input.
1. COc1cc(CCN2CCC(N3Cc4cc(NC(=O)c5cnn6cccnc56)c(OC(C)C)cc4C3=O)CC2)cc2c1C(=O)N(C1CCC(=O)NC1=O)C2 (stereo not drawn)
2. O=C1CCC(N2C(=O)c3ccc(N4CC(F)(CN5CCC(N6Cc7cc(NC(=O)c8cnn9cccnc89)c(OC8CCC8)cc7C6=O)CC5)C4)cc3C2=O)C(=O)N1 (stereo not drawn)
3. CC(C)Oc1nc2c(cc1NC(=O)c1cnn3cccnc13)CN(C1CCN(CC3CCN(c4ccc(C(=O)NC5CCC(=O)NC5=O)c(F)c4)CC3)CC1)C2=O (stereo not drawn)
4. COc1cc(N2CC(N(C)[C@H]3CC[C@H](N4Cc5cc(NC(=O)c6cnn7cccnc67)c(OC(C)C)cc5C4=O)CC3)C2)cc2c1C(=O)N(C1CCC(=O)NC1=O)C2=O (stereo partly drawn)
5. C=Nc1c(C(=O)Nc2cc3cn(C4CCN(CC5(F)CN(c6cccc7c6n(C)c(=O)n7C6CCC(=O)NC6=O)C5)CC4)nc3cc2C2CC2)cnn1/C=C\C (stereo not drawn)
6. CNc1ccn2ncc(C(=O)Nc3cc4cn(C5CCN(CC6(F)CN(c7ccc8c(c7)C(=O)N(C7CCC(=O)NC7=O)C8=O)C6)CC5)nc4cc3OCC3CC3)c2n1 (stereo not drawn)
7. CC(C)Oc1cc2c(cc1NC(=O)c1cnn3cccnc13)CN(C1CCN(C(C)(C)C3CCN(c4ccc5c(c4)CN(C4CCC(=O)NC4=O)C5=O)CC3)CC1)C2=O (stereo not drawn)
8. CC(C)Oc1cc2c(cc1NC(=O)c1cnn3cccnc13)CN(C[C@@H](F)C1CN(CC3CCN(c4ccc5c(c4)CN(C4CCC(=O)NC4=O)C5=O)CC3)C1)C2=O (stereo partly drawn)

Outgoing:
["≥ 90%", "70 to 80%", "≥ 90%", "≥ 90%", "80 to 90%", "70 to 80%", "80 to 90%", "80 to 90%"]

Batch request: Dmax per item, same order as input.
1. COc1cc(N2CC(CN3CCC(n4cc5cc(NC(=O)c6cnn7cccnc67)c(OCC6CC6)cc5n4)CC3)C2)cc2c1C(=O)N(C1CCC(=O)NC1=O)C2=O (stereo not drawn)
2. CC(C)Oc1cc2c(cc1NC(=O)c1cnn3cccnc13)CN(C1CCN(C[C@H]3CCCN(c4ccc5c(c4)C(=O)N(C4CCC(=O)NC4=O)C5=O)C3)CC1)C2=O (stereo partly drawn)

Outgoing:
1. ≥ 90%
2. ≥ 90%

Incoming: Look up Dmax with IRAK-4 (Homo sapiens, UniProt Q9NWZ3) for this molecule: COc1cc2nn([C@H]3CC[C@H](N(C)C4CCN(c5ccc6c(c5)C(=O)N(C5CCC(=O)NC5=O)C6=O)CC4)CC3)cc2cc1NC(=O)c1cnn2cccnc12 (stereo partly drawn)
Outgoing: ≥ 90%
